# tested target: Tyrosine-protein kinase BTK (Homo sapiens, UniProt Q06187)
# Sequence (Q06187 whole entry): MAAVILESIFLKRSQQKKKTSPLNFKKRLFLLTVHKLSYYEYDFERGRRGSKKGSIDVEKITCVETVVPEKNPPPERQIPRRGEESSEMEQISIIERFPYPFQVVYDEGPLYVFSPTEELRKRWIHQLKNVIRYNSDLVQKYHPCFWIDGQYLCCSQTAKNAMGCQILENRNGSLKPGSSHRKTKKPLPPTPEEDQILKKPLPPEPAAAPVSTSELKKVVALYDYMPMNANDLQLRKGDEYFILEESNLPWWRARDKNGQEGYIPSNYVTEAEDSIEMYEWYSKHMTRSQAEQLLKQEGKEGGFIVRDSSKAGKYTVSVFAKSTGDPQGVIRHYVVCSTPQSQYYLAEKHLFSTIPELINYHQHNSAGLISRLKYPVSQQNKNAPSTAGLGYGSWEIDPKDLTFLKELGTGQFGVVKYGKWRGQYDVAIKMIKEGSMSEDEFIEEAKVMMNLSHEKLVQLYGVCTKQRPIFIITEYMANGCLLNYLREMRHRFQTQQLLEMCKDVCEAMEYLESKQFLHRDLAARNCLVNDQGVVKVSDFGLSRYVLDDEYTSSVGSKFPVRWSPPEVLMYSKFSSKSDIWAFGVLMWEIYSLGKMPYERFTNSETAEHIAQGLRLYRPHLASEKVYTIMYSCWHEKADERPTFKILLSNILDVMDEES
# measurement protocol: Inhibition of BTK (unknown origin) using biotin-labeled peptide substrate incubated for 1 hr by TR-FRET based HTRF kinase assay
pIC50: −log10 of the molar value.
# key: entry, value: pIC50
test readout: pIC50

1. CN1CCN(c2ccc(C(=O)Nc3cc(-c4cccc(-n5ccc6cc(C7CC7)cc(F)c6c5=O)c4CO)cn(C)c3=O)cc2)CC1 ... 6.09
2. Cn1cc(-c2cccc(-n3ccc4cc(C5CC5)cc(F)c4c3=O)c2CO)cc(Nc2ccc(N3CCN(C4COC4)CC3)cn2)c1=O ... 7.80

###

# Cmax per record follows
# measurement protocol: Cmax in Sprague-Dawley rat at 2 mg/kg, po measured during 2 mins to 24 hrs period post dose by LC/MS/MS method
# Assay type: ADME, organism-based
# Design: dose 2 mg/kg, route oral
# condition notes: in vivo
test readout: Cmax (ng/mL)

1. Cn1cc(-c2cccc(-n3ccc4cc(C5CC5)cc(F)c4c3=O)c2CO)cc(Nc2ccc(N3CCN(C4COC4)CC3)cn2)c1=O ... 170
2. CN1CCN(c2ccc(Nc3cc(-c4cccc(-n5ccc6cc(C7CC7)cc(F)c6c5=O)c4CO)cn(C)c3=O)nc2)CC1 ... 34.8

###

# measurement protocol: AUC in Sprague-Dawley rat at 1 mg/kg, iv measured during 2 mins to 24 hrs period post dose by LC/MS/MS method
# Format: ADME, organism-based
# Design: time 0.033-24 hr, dose 1 mg/kg, route intravenous
# condition notes: plasma
test readout: AUC (ng·h/mL)

1) CN1CCN(c2ccc(Nc3cc(-c4cccc(-n5ccc6cc(C7CC7)cc(F)c6c5=O)c4CO)cn(C)c3=O)nc2)CC1 ... 404
2) Cn1cc(-c2cccc(-n3ccc4cc(C5CC5)cc(F)c4c3=O)c2CO)cc(Nc2ccc(N3CCN(C4COC4)CC3)cn2)c1=O ... 1670

###

# measurement protocol: Oral bioavailability in Sprague-Dawley rat at 2 mg/kg measured during 2 mins to 24 hrs period post dose by LC/MS/MS method
# Assay type: ADME, organism-based
# condition notes: in vivo
test readout: bioavailability (%)

1. CN1CCN(c2ccc(Nc3cc(-c4cccc(-n5ccc6cc(C7CC7)cc(F)c6c5=O)c4CO)cn(C)c3=O)nc2)CC1 ... 49.9
2. Cn1cc(-c2cccc(-n3ccc4cc(C5CC5)cc(F)c4c3=O)c2CO)cc(Nc2ccc(N3CCN(C4COC4)CC3)cn2)c1=O ... 58.4

###

// values below are reported IC50
# tested target: Tyrosine-protein kinase BTK (Homo sapiens)
# measurement protocol: Inhibition of BTK (unknown origin) using biotin-labeled peptide substrate incubated for 1 hr by TR-FRET based HTRF kinase assay
test readout: IC50 (nM)

1. CN1CC(N2CCN(c3ccc(Nc4cc(-c5cccc(-n6ccc7cc(C8CC8)cc(F)c7c6=O)c5CO)cn(C)c4=O)nc3)CC2)C1 ... 9
2. CN1CCN(c2ccc(Nc3cc(-c4cccc(-n5ccc6cc(C7CC7)ccc6c5=O)c4CO)cn(C)c3=O)nc2)CC1 ... 37
3. Cn1cc(-c2cccc(-n3ccc4cc(C5CC5)cc(F)c4c3=O)c2CO)cc(Nc2ccc(C3CCN(C4COC4)CC3)cn2)c1=O ... 20
4. CN1CCN(c2ccc(Nc3cc(-c4cccc(-n5ccc6cc(C7CC7)cc(F)c6c5=O)c4)cn(C)c3=O)nc2)CC1 ... 503
5. CN1CCN(c2ccc(Nc3cc(-c4cccc(-n5ccc6cc(N(C)C)ncc6c5=O)c4CO)cn(C)c3=O)nc2)CC1 ... 431
6. CN1CCN(c2ccc(Nc3cc(-c4cccc(-n5ccc6nc(C7CC7)ccc6c5=O)c4CO)cn(C)c3=O)nc2)CC1 ... 564
7. CN1CCN(c2ccc(Nc3cc(-c4cccc(-n5ccc6ccccc6c5=O)c4CO)cn(C)c3=O)nc2)CC1 ... 1030
8. Cc1c(NC(=O)c2ccc(C(C)(C)C)cc2)cccc1-c1cc(Nc2ccc(N3CCN(C)CC3)cn2)c(=O)n(C)c1 ... 875
9. Cc1c(-c2cc(Nc3ccc(N4CCN(C5COC5)CC4)cn3)c(=O)n(C)c2)cccc1-n1ccc2cc(C3CC3)cc(F)c2c1=O ... 203
10. Cc1c(-c2cc(Nc3ccc(N4CCN(C)CC4)cn3)c(=O)n(C)c2)cccc1-n1ccc2cc(C3CC3)cc(F)c2c1=O ... 365
11. CN1CCN(c2ccc(Nc3cc(-c4cccc(-n5ccc6cc(C7CC7)ncc6c5=O)c4CO)cn(C)c3=O)nc2)CC1 ... 255
12. Cn1cc(-c2cccc(-n3ccc4cc(C5CC5)cc(F)c4c3=O)c2CO)cc(Nc2ccc(N3CCN(C(=O)C4CC4)CC3)cn2)c1=O ... 28

###

# measurement protocol: Apparent volume of distribution in Sprague-Dawley rat at 1 mg/kg, iv measured during 2 mins to 24 hrs period post dose by LC/MS/MS method
# Assay type: ADME, organism-based
# Design: dose 1 mg/kg, route intravenous
# condition notes: in vivo, read-out: Vz
test readout: Vd (L/kg)

1) CN1CCN(c2ccc(Nc3cc(-c4cccc(-n5ccc6cc(C7CC7)cc(F)c6c5=O)c4CO)cn(C)c3=O)nc2)CC1 ... 50.5
2) Cn1cc(-c2cccc(-n3ccc4cc(C5CC5)cc(F)c4c3=O)c2CO)cc(Nc2ccc(N3CCN(C4COC4)CC3)cn2)c1=O ... 9.28

###

# tested target: Tyrosine-protein kinase BTK (Homo sapiens, UniProt Q06187)
# measurement protocol: Inhibition of BTK (unknown origin) using biotin-labeled peptide substrate incubated for 1 hr by TR-FRET based HTRF kinase assay
test readout: IC50

1) Cc1c(-c2cc(Nc3ccc(N4CCN(C)CC4)cn3)c(=O)n(C)c2)cccc1-c1nc2cc(C(C)(C)C)ccc2[nH]1 ... > 5 µM
2) Cc1c(-c2cc(Nc3ccc(N4CCN(C)CC4)cn3)c(=O)n(C)c2)cccc1N1C(=O)c2ccc(C(C)(C)C)cc2C1=O ... > 5 µM
3) CN1CCN(c2ccc(CNc3cc(-c4cccc(-n5ccc6cc(C7CC7)cc(F)c6c5=O)c4CO)cn(C)c3=O)cc2)CC1 ... > 5 µM

Data credit: ChEMBL document CHEMBL3351827
